Biological target: recombinant human GAA (acid alpha-glucosidase) (Homo sapiens, UniProt P10253)
Assay: Acid alpha-glucosidase (GAA) assay (4-methylumbelliferyl-alpha-D-pyranoside substrate, fluorescence)
Assay type: biochemical
pIC50: −log10 of the molar value.
Given measured pIC50, output condition met if it is greater than or equal to 7 and condition not met if not.

Reported pIC50 at or above 7? OC[C@@H]1[C@@H](O)[C@H](O)[C@@H](O)CN1Cc1ccc(CNc2cc(C3CC3)cc(N3CCOCC3)c2)cc1 [Compound 1010]
condition not met

Now the same for OC[C@@H]1[C@@H](O)[C@H](O)[C@@H](O)CN1CCCCCCNc1ccc(-c2ncco2)cc1Cl [Compound 1203]
condition met

And the next one, [N-]=[N+]=Nc1ccc(NCc2cccc(CN3C[C@H](O)[C@@H](O)[C@H](O)[C@H]3CO)c2)c([N+](=O)[O-])c1 [Compound 1169] ?
condition not met

One more molecule: N#Cc1cc(NCc2cccc(CN3C[C@H](O)[C@@H](O)[C@H](O)[C@H]3CO)c2)cc(N2CCOCC2)c1 [Compound 1042]
condition not met

What about C[C@@H]1CN(c2ccc(NCc3ccc(CN4C[C@H](O)[C@@H](O)[C@H](O)[C@H]4CO)cc3)c([N+](=O)[O-])c2)C[C@H](C)O1 [Compound 1014] ?
condition met

Would you mind doing COc1cc(Cc2ccccc2)cc(NCCCCCCN2C[C@H](O)[C@@H](O)[C@H](O)[C@H]2CO)c1 [Compound 1145] as well?
condition met

====

I'd be grateful if you could share measured log10 of IC50 for these entries.
Molecular target: recombinant alpha-glucosidase I (human full-length glucosidase I, Glu 1) (Homo sapiens, UniProt Q13724)
Construct: 6-His (C); made in house; host or cells: HEK-293T cells transduced with BacMam virus (virus raised in Sf9)
Sequence (Q13724 1-837): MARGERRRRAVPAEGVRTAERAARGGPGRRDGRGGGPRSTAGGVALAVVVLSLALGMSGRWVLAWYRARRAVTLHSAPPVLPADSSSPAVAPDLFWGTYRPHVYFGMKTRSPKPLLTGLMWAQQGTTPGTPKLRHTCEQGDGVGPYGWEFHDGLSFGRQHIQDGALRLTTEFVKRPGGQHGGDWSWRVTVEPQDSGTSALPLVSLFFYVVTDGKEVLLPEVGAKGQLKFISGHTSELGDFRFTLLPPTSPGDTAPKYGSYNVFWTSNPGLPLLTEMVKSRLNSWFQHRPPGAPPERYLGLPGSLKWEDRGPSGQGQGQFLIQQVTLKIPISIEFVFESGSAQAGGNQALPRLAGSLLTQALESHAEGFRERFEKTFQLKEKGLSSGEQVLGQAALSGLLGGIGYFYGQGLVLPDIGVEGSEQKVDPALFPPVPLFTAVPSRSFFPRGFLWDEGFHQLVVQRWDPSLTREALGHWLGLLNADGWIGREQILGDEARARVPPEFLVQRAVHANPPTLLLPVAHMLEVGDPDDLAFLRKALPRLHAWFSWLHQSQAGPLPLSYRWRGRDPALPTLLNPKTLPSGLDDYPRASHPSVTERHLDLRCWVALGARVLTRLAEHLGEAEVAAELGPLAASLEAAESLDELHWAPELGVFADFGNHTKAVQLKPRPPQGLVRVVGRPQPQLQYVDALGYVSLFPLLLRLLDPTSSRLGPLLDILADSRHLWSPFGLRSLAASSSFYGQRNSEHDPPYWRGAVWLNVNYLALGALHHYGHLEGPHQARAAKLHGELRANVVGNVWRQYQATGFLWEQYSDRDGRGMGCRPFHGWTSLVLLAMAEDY
Experiment: Alpha-glucosidase I assay (Amplex Red glucose detection, synthetic trisaccharide substrate)
Type: biochemical
For clarity, the numbers are log10 values of IC50 expressed in µM.

Looking for the measured log10 of IC50 of CS(=O)(=O)c1cc(Br)cc(NCc2cccc(CN3C[C@H](O)[C@@H](O)[C@H](O)[C@H]3CO)c2)c1 [Compound 1022] , can you help?
-1.72

Repeat with CS(=O)(=O)c1cc(NCc2ccc(CN3C[C@H](O)[C@@H](O)[C@H](O)[C@H]3CO)cc2)cc(-c2cccnn2)c1 [Compound 1058]
-1.68

What about O=[N+]([O-])c1cc(-c2ccccc2)ccc1NCCCCCCN1C[C@H](O)[C@@H](O)[C@H](O)[C@H]1CO [Compound 1138] ?
-0.94

Likewise for Cc1cc(NCc2cccc(CN3C[C@H](O)[C@@H](O)[C@H](O)[C@H]3CO)n2)cc(-c2ccc[nH]2)c1 [Compound 1335] ?
-0.02

Same question, OC[C@@H]1[C@@H](O)[C@H](O)[C@@H](O)CN1CCc1ccc(CCNc2cc(Cl)cc(-c3cccnn3)c2)cc1 [Compound 1163] this time
-0.68

Thanks! And OC[C@@H]1[C@@H](O)[C@H](O)[C@@H](O)CN1Cc1ccc(CNc2ccc(N3CCOCC3)cc2)cc1 [Compound 1068] ?
-0.91

====

Target: recombinant human GBA (beta-glucocerebrosidase) (Homo sapiens, UniProt P04062)
Sequence (P04062 40-536): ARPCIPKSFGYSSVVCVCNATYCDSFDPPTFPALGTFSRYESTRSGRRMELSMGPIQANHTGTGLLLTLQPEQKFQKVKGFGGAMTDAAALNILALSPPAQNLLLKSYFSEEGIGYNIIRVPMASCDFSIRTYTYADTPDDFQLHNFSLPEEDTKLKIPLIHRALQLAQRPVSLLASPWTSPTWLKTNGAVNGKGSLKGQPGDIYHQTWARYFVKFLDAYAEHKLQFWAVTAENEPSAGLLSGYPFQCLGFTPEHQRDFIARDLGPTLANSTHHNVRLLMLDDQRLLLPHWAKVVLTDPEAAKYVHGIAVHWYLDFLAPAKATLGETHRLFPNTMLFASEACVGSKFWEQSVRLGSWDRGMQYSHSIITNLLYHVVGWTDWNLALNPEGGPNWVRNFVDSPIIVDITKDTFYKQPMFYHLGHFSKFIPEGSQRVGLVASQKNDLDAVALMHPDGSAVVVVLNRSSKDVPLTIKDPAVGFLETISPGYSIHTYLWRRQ
Experiment: Beta-glucocerebrosidase (GBA, glucosylceramidase) assay (4-methylumbelliferyl-beta-D-pyranoside substrate, fluorescence)
endpoint: log10(IC50) (log10 of the value in µM)
Note: values are log10 of IC50 expressed in µM.

So what does the record say about log10(IC50) for "OC[C@@H]1[C@@H](O)[C@H](O)[C@@H](O)CN1CCc1ccc(CCNc2cc(Cl)cc(-c3ncon3)c2)cc1" ?
0.80

Next compound up: "COC(OC)c1cc(NCCCCCCN2C[C@H](O)[C@@H](O)[C@H](O)[C@H]2CO)cc(-c2ncccn2)c1"
0.48

What about this compound? "OC[C@@H]1[C@@H](O)[C@H](O)[C@@H](O)CN1CCc1ccc(CCNc2cc(Cl)cc(C3=CCOCC3)c2)cc1"
0.27

Please answer likewise for "[N-]=[N+]=Nc1ccc(NCCNc2cc(Cl)cc(CCN3C[C@H](O)[C@@H](O)[C@H](O)[C@H]3CO)c2)c([N+](=O)[O-])c1"
-0.39

Quick one: "COCCc1ccc(CCCN2C[C@H](O)[C@@H](O)[C@H](O)[C@H]2CO)cc1"
1.71

Then what about the compound "[N-]=[N+]=Nc1ccc(NCCNC(=O)NCCN2C[C@H](O)[C@@H](O)[C@H](O)[C@H]2CO)c([N+](=O)[O-])c1" ?
-1.21

Same read-out for "OC[C@@H]1[C@@H](O)[C@H](O)[C@@H](O)CN1Cc1cccc(CNc2ccc(-c3ccc[nH]3)cc2)c1" ?
1.14

====

Molecular target: rat maltase (partially purified alpha-glucosidase from intestinal rat powder)
Assay: Intestinal alpha-glucosidase assay, maltose substrate (Glucose GO Kit)
pIC50: −log10 of the molar value.
pIC50 vs 8: at or above is true, below is false.

Decide: is the reported value of pIC50 for "O=[N+]([O-])c1cc(-c2cccnn2)ccc1NCc1cccc(CN2C[C@H](O)[C@@H](O)[C@H](O)[C@H]2CO)c1" equal to or greater than 8?
false

# repeat for "[N-]=[N+]=Nc1ccc(NCCc2cc(Br)cc(CCN3C[C@H](O)[C@@H](O)[C@H](O)[C@H]3CO)c2)c([N+](=O)[O-])c1"
false

And for "[N-]=[N+]=Nc1ccc(NCCS(=O)(=O)CCCN2C[C@H](O)[C@@H](O)[C@H](O)[C@H]2CO)c([N+](=O)[O-])c1" ?
false

Now give it for "COc1cc(CN2CCCO2)cc(NCCCCCCN2C[C@H](O)[C@@H](O)[C@H](O)[C@H]2CO)c1" too.
false

What do we get for "[N-]=[N+]=Nc1ccc(NCCc2cc(CCN3C[C@H](O)[C@@H](O)[C@H](O)[C@H]3CO)cs2)c([N+](=O)[O-])c1" ?
true

Same thing, different compound: "Cc1cc(NCc2cnc(CN3C[C@H](O)[C@@H](O)[C@H](O)[C@H]3CO)cn2)cc(-c2ccc[nH]2)c1"
false

Also "COc1cc(NCCCCCCN2C[C@H](O)[C@@H](O)[C@H](O)[C@H]2CO)cc(-c2ccccc2)c1" ?
true

Next record, please: "CN(C)Cc1ccc(NCCCCCCN2C[C@H](O)[C@@H](O)[C@H](O)[C@H]2CO)c(F)c1"
false

Same thing, different compound: "CS(=O)(=O)c1cc(Br)cc(NCc2cccc(CN3C[C@H](O)[C@@H](O)[C@H](O)[C@H]3CO)c2)c1"
false

====

Can you tell me pIC50 for the items I'm about to list?
Molecular target: recombinant human GAA (acid alpha-glucosidase) (Homo sapiens, UniProt P10253)
Assay: Acid alpha-glucosidase (GAA) assay (4-methylumbelliferyl-alpha-D-pyranoside substrate, fluorescence)
Entry type: numeric. Quantity: pIC50, the -log10 of concentration in molar units.

Request the reported pIC50 associated with "N#Cc1cc(NCc2ccc(CN3C[C@H](O)[C@@H](O)[C@H](O)[C@H]3CO)cc2)cc(-c2ncccn2)c1"
7.05

Lookup "OC[C@@H]1[C@@H](O)[C@H](O)[C@@H](O)CN1CCCCCCNc1ccc(-c2ncccn2)cc1F"
7.09

Now consider "OC[C@@H]1[C@@H](O)[C@H](O)[C@@H](O)CN1Cc1cccc(CNc2ccc(-c3ccc[nH]3)cc2)c1" .
6.06

Next compound: "OC[C@@H]1[C@@H](O)[C@H](O)[C@@H](O)CN1CCCCCCNc1cc(Cl)cc(CN2CCCO2)c1"
7.05

What do we get for "OC[C@@H]1[C@@H](O)[C@H](O)[C@@H](O)CN1Cc1ccc(CNc2ccc(-c3ncccn3)cc2)cc1" ?
6.59

And then "COc1cc(-c2cnccn2)ccc1NCCCCCCN1C[C@H](O)[C@@H](O)[C@H](O)[C@H]1CO" , what is it?
7.37

Now this one: "COC(OC)c1cc(NCCCCCCN2C[C@H](O)[C@@H](O)[C@H](O)[C@H]2CO)cc(-c2ncccn2)c1"
7.44

Let us now turn to "CS(=O)(=O)c1cc(Br)cc(NCc2ccc(CN3C[C@H](O)[C@@H](O)[C@H](O)[C@H]3CO)cc2)c1"
6.87

Please do the same for "N#CCc1ccc(NCCCCCCN2C[C@H](O)[C@@H](O)[C@H](O)[C@H]2CO)c([N+](=O)[O-])c1" as well.
7.49

Here is the next compound: "N#Cc1cc(NCc2cccc(CN3C[C@H](O)[C@@H](O)[C@H](O)[C@H]3CO)c2)cc(-c2cccnn2)c1"
5.79

Check "COc1cc(-c2ncco2)ccc1NCCCCCCN1C[C@H](O)[C@@H](O)[C@H](O)[C@H]1CO" too.
7.12

"CS(=O)(=O)c1cc(NCCCCCCN2C[C@H](O)[C@@H](O)[C@H](O)[C@H]2CO)cc(-c2ncccn2)c1" ?
8.30

Request: "COc1cc(-c2ncccn2)ccc1NCCCCCCN1C[C@H](O)[C@@H](O)[C@H](O)[C@H]1CO"
7.04

O=[N+]([O-])c1cc(N2C3CCC2COC3)ccc1NCc1ccc(CN2CC(O)C(O)C(O)C2CO)cc1 (stereo in doubt) , same question.
7.36

How about this compound: "COc1cc(NCCc2ccc(CCN3C[C@H](O)[C@@H](O)[C@H](O)[C@H]3CO)cc2)cc(-c2cccnn2)c1"
6.53

// same read-out, input: "OC[C@@H]1[C@@H](O)[C@H](O)[C@@H](O)CN1CCc1ccc(CCNc2cc(Cl)cc(C3=COCCO3)c2)cc1"
7.08

Check "CC#Cc1ccc(NCCCCCCN2C[C@H](O)[C@@H](O)[C@H](O)[C@H]2CO)c([N+](=O)[O-])c1" too.
7.68

What about this compound? "O=C(O)c1cc(NCCCCCCN2C[C@H](O)[C@@H](O)[C@H](O)[C@H]2CO)cc(-c2ncccn2)c1"
7.57

What do we get for [N-]=[N+]=Nc1ccc(NCCc2ccc(CCN3C[C@@H](O)[C@H](O)[C@@H](O)[C@@H]3CO)c3ccccc23)c([N+](=O)[O-])c1 (stereo in doubt) ?
5.23

And then "[N-]=[N+]=Nc1ccc(NCCn2cc(CCN3C[C@H](O)[C@@H](O)[C@H](O)[C@H]3CO)c3ccccc32)c([N+](=O)[O-])c1" , what is it?
5.26

Now the compound "NC(=O)CCN(CCNc1ccc(-c2ncccn2)cc1[N+](=O)[O-])CCN1C[C@H](O)[C@@H](O)[C@H](O)[C@H]1CO"
4.68

Same question, "O=[N+]([O-])c1cc(N2CCOCC2)ccc1NCc1cccc(CN2C[C@H](O)[C@@H](O)[C@H](O)[C@H]2CO)c1" this time
6.37

Continue with "O=[N+]([O-])c1cc(-c2ncccn2)ccc1NCc1ccc(CN2C[C@H](O)[C@@H](O)[C@H](O)[C@H]2CO)cc1"
7.55

"Cc1cc(NCc2cccc(CN3C[C@H](O)[C@@H](O)[C@H](O)[C@H]3CO)n2)cc(-c2ccc[nH]2)c1" , same question.
6.33

Consider next the compound "[N-]=[N+]=Nc1ccc(NCCOC(=O)NCCN2C[C@H](O)[C@@H](O)[C@H](O)[C@H]2CO)c([N+](=O)[O-])c1" in the same way.
6.21

// query: "[N-]=[N+]=Nc1ccc(NCc2ccc(Cc3ccc(CN4C[C@H](O)[C@@H](O)[C@H](O)[C@H]4CO)cc3)cc2)c([N+](=O)[O-])c1"
7.22

Data origin: patent US20250197372A1
